- System: DCAMKL1;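 note: KINOMEscan scanMAX binding as percent activity remaining versus control; lower means stronger binding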
- Construct: gene DCLK1
- setupConditions: Compound Concentration (nM):1000
Classification field: enter criterion met for Percent Control values not below 90%, criterion not met for values below it.

Here's what some known entries look like.
[
  {
    "molecule": "NS(=O)(=O)c1ccc(N/N=C2\\C(=O)Nc3ccc(C(=O)NCCc4c[nH]cn4)cc32)cc1 [GW300660X]",
    "assignedCategory": "criterion not met"
  },
  {
    "molecule": "COC(=O)Nc1nc2ccc(Oc3ccc(NC(=O)Nc4cc(C(F)(F)F)ccc4F)cc3)cc2s1.Cl [GW693917A]",
    "assignedCategory": "criterion met"
  },
  {
    "molecule": "COc1cc(C)c(N(C)C(=O)CN(C)C)cc1Nc1nc(Nc2cccc(F)c2C(N)=O)c2cc[nH]c2n1",
    "assignedCategory": "criterion not met"
  },
  {
    "molecule": "NS(=O)(=O)c1ccc(N/N=C2\\C(=O)Nc3ccc(-c4cnco4)cc32)cc1",
    "assignedCategory": "criterion not met"
  }
]

Input line: Answer whether Percent Control of COc1cc2ncn(-c3cc(O[C@H](C)c4ccccc4Cl)c(C(N)=O)s3)c2cc1OC [GSK237701A] is greater than or equal to 90%.
Output line: criterion not met

Input line: Can you check Cc1cc(O)cc(C)c1/C=C/c1cncc(C(N)=O)c1 [GW435821X] next?
Output line: criterion not met

Input line: Can you check C[C@@H](Oc1cc(-n2cnc3ccc(OC4CCN(C)CC4)cc32)sc1C(N)=O)c1ccccc1Cl [GSK579289A] next?
Output line: criterion not met

Input line: Can you check COc1cc2ncnc(Nc3ccc4c(cnn4Cc4ccccc4)c3)c2cc1OC.Cl [GW282449A] next?
Output line: criterion met

Input line: Can you check "COc1ccc2cc(-c3c(-c4ccncc4)nc(-c4ccc(S(C)(=O)=O)cc4C)n3C)ccc2c1" next?
Output line: criterion not met

Input line: Can you check COc1cc(N2CCN(C(C)C)CC2)ccc1Nc1nc(Nc2ccc(F)cc2C(=O)NC[C@@H](O)CO)c2cc[nH]c2n1 [GSK1392956A] next?
Output line: criterion not met
